- Tested on: Jar
- assay info: Confirmatory qHTS for gynecologic anti-cancer compounds from libraries of approved drugs and bioactive compounds; also: nearly all actives have a fitted effect of over 55% in size
- test settings: gynecologic cancer cell panel viability, ATPlite luminescence, 48 h; series mostly up to 57.6 µM
Records with an inconclusive call do not appear. Activity calls are given as the source filed them. Calls follow the shape of the dose curve; as a rule, active = well fitted cell-killing curve with a large enough effect; inconclusive = small, poorly fitted or top-dose-only effect, or effect the other way; inactive = no such curve, though single readings can be large or run the other way.
Return exactly one item of 1.0 for active, 0.0 for inactive

GET /call?item= O=C1NC(=O)C(c2cnc3ccccn23)=C1c1cn2c3c(cccc13)CN(C(=O)N1CCOCC1)CC2 returns the recorded outcome of this test.
0.0

Now try CCC1=CC2CN(C1)Cc1c([nH]c3ccccc13)[C@@](C(=O)OC)(c1cc3c(cc1OC)N(C)[C@H]1[C@@](O)(C(=O)OC)[C@H](OC(C)=O)[C@]4(CC)C=CCN5CC[C@]31[C@@H]54)C2 (some centres undefined) .
1.0

Please answer likewise for CCS(=O)(=O)N1CCN(c2ccc(Nc3ncc(C(N)=O)c(NC4CC4)n3)cc2)CC1
1.0

Same again, this time with CC(C)Oc1ccc2c(=O)c(-c3ccccc3)coc2c1
1.0

Thanks! And Cc1nc(N)nc(N)c1-c1ccc(Cl)c(Cl)c1 ?
1.0

What do you have for COC(C(=O)N1Cc2[nH]nc(NC(=O)c3ccc(N4CCN(C)CC4)cc3)c2C1)c1ccccc1 (centres undefined) ?
0.0

Another compound: Cc1nc(NC(=O)N2CCCC2C(N)=O)sc1-c1csc(C(C)(C)C)n1 (centres undefined)
1.0

What do we get for CNC(=O)c1nn(C)c2c1C(C)(C)Cc1cnc(Nc3ccc(N4CCN(C)CC4)cc3)nc1-2 ?
1.0

// query: O=C(CCCCCCNC(=O)c1cnc(N(c2ccccc2)c2ccccc2)nc1)NO
1.0

====

- System: Jar
- assay info: Confirmatory qHTS for gynecologic anti-cancer compounds from libraries of approved drugs and bioactive compounds; also: nearly all actives have a fitted effect of over 55% in size
- test settings: gynecologic cancer cell panel viability, ATPlite luminescence, 48 h; series mostly up to 57.6 µM
Inconclusive results are not listed. The source made the active and inactive calls. Calls follow the shape of the dose curve; as a rule, active = well fitted cell-killing curve with a large enough effect; inconclusive = small, poorly fitted or top-dose-only effect, or effect the other way; inactive = no such curve, though single readings can be large or run the other way.
Form entry, call: pick from active, inactive

In this assay, the call recorded for COC(C)(C)CCn1nc(Nc2c(C)cccc2C)c2cnc(Nc3ccc(OCCN4CCCC4)c(F)c3)nc21 was what?
active

Try the molecule C[C@]12CCC(=O)C=C1CC[C@@H]1[C@@H]2[C@@H](O)C[C@@]2(C)[C@H]1CC[C@]2(O)C(=O)CO
inactive

What do you have for COc1ccc(OC)c(-c2nnc3ccc(-c4ccc(OC)c(O[C@@H]5CCOC5)c4)nn23)c1 ?
active

Similarly, O=C(CCCCCCC(=O)Nc1ccccc1)NO ?
active

Let us now turn to CC[C@@]1(O)C(=O)OCc2c1cc1n(c2=O)Cc2c-1nc1ccccc1c2/C=N/OC(C)(C)C
active

Try this molecule too: Cc1cc(Nc2cc(N3CCN(C)CC3)nc(/C=C/c3ccccc3)n2)n[nH]1
active

And then CCCCc1nc2cc(/C=C/C(=O)NO)ccc2n1CCN(CC)CC , what is it?
active

Try CCN(CC)CCNC(=O)c1c(C)[nH]c(/C=C2\C(=O)Nc3ccc(F)cc32)c1C next.
active

Record: Cc1nc(NC(=O)N2CCCC2C(N)=O)sc1-c1ccnc(C(C)(C)C(F)(F)F)c1 (centres undefined)
active

====

- System: Jar
- assay info: Confirmatory qHTS for gynecologic anti-cancer compounds from libraries of approved drugs and bioactive compounds; also: nearly all actives have a fitted effect of over 55% in size
- test settings: gynecologic cancer cell panel viability, ATPlite luminescence, 48 h; series mostly up to 57.6 µM
Results filed as inconclusive are left out. Activity calls are given as the source filed them. Calls follow the shape of the dose curve; as a rule, active = well fitted cell-killing curve with a large enough effect; inconclusive = small, poorly fitted or top-dose-only effect, or effect the other way; inactive = no such curve, though single readings can be large or run the other way.
Bench note: report the call from Y for active, N for inactive

Please let me know the test result on file for Cc1cc(Nc2nc(N[C@@H](C)c3ncc(F)cn3)ncc2Cl)n[nH]1 .
N

Note, next up: COc1ccc2c(c1OC)C(=O)O[C@@H]2[C@H]1c2c(cc3c(c2OC)OCO3)CCN1C
Y

Likewise for O=C(/C=C/c1cccc(S(=O)(=O)Nc2ccccc2)c1)NO ?
Y

Consider next the molecule CCN1CCN(Cc2ccc(-c3cc4c(NC(C)c5ccccc5)ncnc4[nH]3)cc2)CC1 (stereo not given) in the same way.
Y

What about COc1ccc(-c2ccc3c(N4CCOCC4C)nc(N4CCOCC4C)nc3n2)cc1CO (stereo not given) ?
N

What would you report for Cn1cnc([N+](=O)[O-])c1Sc1ncnc2nc[nH]c12 ?
Y

What would you report for Cc1cc(Nc2nc(N[C@@H](C)c3ccc(F)cc3)c(C#N)cc2F)n[nH]1 ?
Y

Then what about the molecule Fc1cc(-c2cccc3ncc(-c4cnn(C5CCNCC5)c4)nc23)cc(F)c1CN1CCOCC1 ?
Y

Would you mind doing CNC(=O)c1ccccc1Nc1nc(Nc2ccc(N3CCOCC3)cc2OC)ncc1Cl as well?
Y

What about CCN(CC)CCCC(C)Nc1c2ccc(Cl)cc2nc2ccc(OC)cc12 (stereo not given) ?
N

Input CC(C)n1nc(-c2cc3cc(O)ccc3[nH]2)c2c(N)ncnc21
Y

Then this molecule: Nc1ccccc1NC(=O)c1ccc(CNC(=O)OCc2cccnc2)cc1
Y

Now the same for CC(C)(C(=O)NCC(F)(F)C(F)(F)F)C(=O)NC1C(=O)Nc2ccccc2-c2ccccc21 (stereo not given)
N

Another molecule to look at: COc1cc(N2CCC(N3CCN(C)CC3)CC2)ccc1Nc1ncc(Cl)c(Nc2ccccc2S(=O)(=O)C(C)C)n1
Y

Also CN1C2CCC1CC(OC(=O)[C@H](CO)c1ccccc1)C2 (stereo not given in full) , if possible.
N

====

- System: Jar
- assay info: Confirmatory qHTS for gynecologic anti-cancer compounds from libraries of approved drugs and bioactive compounds; also: nearly all actives have a fitted effect of over 55% in size; also: potency is read from the fitted curve at half-maximal effect
- test settings: gynecologic cancer cell panel viability, ATPlite luminescence, 48 h; series mostly up to 57.6 µM
Inconclusive results are not listed. Active and inactive are the calls of the source. Calls follow the shape of the dose curve; as a rule, active = well fitted cell-killing curve with a large enough effect; inconclusive = small, poorly fitted or top-dose-only effect, or effect the other way; inactive = no such curve, though single readings can be large or run the other way.
parameter: Potency

The cases that follow already have their Potency on record.
* COc1c(C)c2c(c(O)c1C/C=C(\C)CCC(=O)OCCN1CCOCC1)C(=O)OC2 | inactive
* CCC1C(=O)N(C)c2cnc(Nc3ccc(C(=O)NC4CCC(N5CCN(CC6CC6)CC5)CC4)cc3OC)nc2N1C(C)C (stereo unspecified) | 61.1 nM (active)
* COc1cccc2c1C(=O)c1c(O)c3c(c(O)c1C2=O)C[C@@](O)(C(=O)CO)C[C@@H]3O[C@H]1C[C@H](N)[C@H](O)[C@H](C)O1 | 1720 nM (active)
* CC(C)C[C@H](NC(=O)[C@H](Cc1ccccc1)NC(=O)c1cnccn1)B(O)O | 48.5 nM (active)

// fetch Jar Potency for CN(C)C(CCOc1cccc2ccccc12)c1ccccc1 (stereo unspecified)
inactive

Could you do the same for CCCCN(CCCC)C(=O)CN1C[C@H](c2ccc3c(c2)OCO3)[C@@H](C(=O)O)[C@@H]1c1ccc(OC)cc1 , please?
inactive

====

- System: Jar
- assay info: Confirmatory qHTS for gynecologic anti-cancer compounds from libraries of approved drugs and bioactive compounds; also: nearly all actives have a fitted effect of over 55% in size
- test settings: gynecologic cancer cell panel viability, ATPlite luminescence, 48 h; series mostly up to 57.6 µM
Results filed as inconclusive are left out. Activity calls are given as the source filed them. Calls follow the shape of the dose curve; as a rule, active = well fitted cell-killing curve with a large enough effect; inconclusive = small, poorly fitted or top-dose-only effect, or effect the other way; inactive = no such curve, though single readings can be large or run the other way.
# valid calls are true (active), false (inactive); nothing else

# fetch the recorded call for Cc1nc(Nc2n[nH]c3c2CN(C(=O)NC(CN(C)C)c2ccccc2)C3(C)C)c2sccc2n1 (stereo not given) here
false

Field entry: CCOc1cc2ncc(C#N)c(Nc3ccc(F)c(Cl)c3)c2cc1NC(=O)/C=C/CN(C)C
true

Field entry: CCN(CC)CCOc1ccc(/C(=C(\Cl)c2ccccc2)c2ccccc2)cc1
true

Proceed to CC(C)(C)C(=O)OCOP(=O)(COCCn1cnc2c(N)ncnc21)OCOC(=O)C(C)(C)C
true

Item: Cc1cc(C(=O)N2CCN(c3cccc(Cl)c3)CC2)n(-c2ccccc2)n1
true

CN1CCN(c2ccc(OC(F)(F)F)c(Nc3ncc4c(n3)-c3c(c(C(N)=O)nn3CCO)CC4)c2)CC1 ?
true

What about CC(Oc1ccc2[nH]nc(/C=C/c3cnn(CCO)c3)c2c1)c1c(Cl)cncc1Cl (stereo not given) ?
false

Another compound: Cc1ccc(C(=O)Nc2ccc(CN3CCN(C)CC3)c(C(F)(F)F)c2)cc1C#Cc1cnc2cccnn12
true

Similarly, Nc1nc(=S)c2[nH]cnc2[nH]1 ?
true

Proceed to Cn1cnc2c(F)c(Nc3ccc(Br)cc3Cl)c(C(=O)NOCCO)cc21
false
